# credit: paper PMC7011955

measured.quantity: melting point

Here's what some known entries look like.
{"compound": "O=C1Nc2ccc(Br)cc2C1=NNc1nc(-c2ccc(Cl)cc2)cs1 [Compound 10k]", "melting point": "> 300 °C"}
{"compound": "CC(=O)c1ccc(C=NN=C2C(=O)Nc3ccc(Br)cc32)cc1", "melting point": "270 to 272 °C"}
{"compound": "Cc1ccc(-c2csc(NN=C3C(=O)Nc4ccc(Br)cc43)n2)cc1 [Compound 10j]", "melting point": "> 300 °C"}
{"compound": "Cc1csc(C=NN=C2C(=O)Nc3ccc(Br)cc32)n1", "melting point": "248 to 250 °C"}

Prompt: Give melting point for the following compound: "O=C1Nc2ccccc2C1=NN=Cc1ccn[nH]1"
Response: 283 to 285 °C

Prompt: For the compound Cc1ccc(-c2csc(NN=C3C(=O)Nc4ccccc43)n2)cc1 [Compound 10b] , report melting point.
Response: 284 to 286 °C

Prompt: Note melting point for the compound shown: "O=C1Nc2ccc(Br)cc2C1=NN=Cc1nccs1"
Response: 260 to 262 °C

Prompt: Please give measured melting point of the following entry: "COC(=O)c1ccc(C=NN=C2C(=O)Nc3ccccc32)cc1"
Response: 225 to 227 °C

Prompt: Give me measured melting point, please, for this compound: O=C1Nc2ccc(Br)cc2C1=NNc1nc(-c2ccccc2)cs1 [Compound 10i]
Response: 285 to 287 °C

Prompt: Return the recorded melting point value; entry: "CC(=O)c1ccc(C=NN=C2C(=O)Nc3ccccc32)cc1"
Response: 228 to 230 °C

Prompt: Tell us which melting point value is on record for O=C1Nc2ccc(Br)cc2C1=NNc1nc(-c2ccc(Br)cc2)cs1 [Compound 10l]
Response: > 300 °C

Prompt: Look up and report measured melting point for this entry: O=C1Nc2ccc(Cl)cc2C1=NNc1nc(-c2ccc(Br)cc2)cs1 [Compound 10h]
Response: > 300 °C

Prompt: Give the reported value of melting point for this record: "COC(=O)c1ccc(C=NN=C2C(=O)Nc3ccc(Cl)cc32)cc1"
Response: 266 to 268 °C

Prompt: Return value of melting point for input O=C1Nc2ccc(Cl)cc2C1=NNc1nc(-c2ccc(Cl)cc2)cs1 [Compound 10g] , no commentary.
Response: > 300 °C
